Value source: ChEMBL document CHEMBL3352411

# assaySummary: Volume of distribution at steady state in Wistar rat at 1 mg/kg, iv
# Assay type: ADME, organism-based
# Set-up: dose 1 mg/kg, route intravenous
# conditionLabel: in vivo, read-out: Vdss
measurementName: Vd (L/kg)

{"smiles": "CCN(Cc1cc(F)ccc1-c1cn(CC(=O)O)c2ccccc12)C(=O)C1CC1", "readingUnit": "L/kg", "observedMeasurement": 5.4}
{"smiles": "CCN(Cc1ccccc1-n1cc(CC(=O)O)c2ccc(C(F)(F)F)cc21)C(=O)C1CC1", "readingUnit": "L/kg", "observedMeasurement": 3.2}
{"smiles": "CCN(Cc1cc(C(F)(F)F)ccc1-c1cc(CC(=O)O)n2cccnc12)C(=O)C1CC1", "readingUnit": "L/kg", "observedMeasurement": 4.2}
{"smiles": "CCN(Cc1cc(C(F)(F)F)ccc1-n1cc(CC(=O)O)c2ccc(C)nc21)C(=O)C1CC1", "readingUnit": "L/kg", "observedMeasurement": 1.8}
{"smiles": "CCN(Cc1cc(C(F)(F)F)ccc1-c1cn(CC(=O)O)c2ccc(C)nc12)C(=O)C1CC1", "readingUnit": "L/kg", "observedMeasurement": 2.7}

###

# Cmax per entry
# assaySummary: Cmax in Wistar rat at 1 mg/kg, iv
# Type: ADME, organism-based
# Set-up: dose 1 mg/kg, route intravenous
# conditionLabel: in vivo

{"smiles": "CCN(Cc1cc(C(F)(F)F)ccc1-c1cn(CC(=O)O)c2ccc(C)nc12)C(=O)C1CC1", "readingUnit": "ng/mL", "Cmax": 366}
{"smiles": "CCN(Cc1ccccc1-n1cc(CC(=O)O)c2ccc(C(F)(F)F)cc21)C(=O)C1CC1", "readingUnit": "ng/mL", "Cmax": 1900}
{"smiles": "CCN(Cc1cc(F)ccc1-c1cn(CC(=O)O)c2ccccc12)C(=O)C1CC1", "readingUnit": "ng/mL", "Cmax": 431}
{"smiles": "CCN(Cc1cc(C(F)(F)F)ccc1-c1cc(CC(=O)O)n2cccnc12)C(=O)C1CC1", "readingUnit": "ng/mL", "Cmax": 910}
{"smiles": "CCN(Cc1cc(C(F)(F)F)ccc1-n1cc(CC(=O)O)c2ccc(C)nc21)C(=O)C1CC1", "readingUnit": "ng/mL", "Cmax": 1610}

###

The following compounds are shown together with reported T1/2 values.
# targetOrTestSystem: Prostaglandin D2 receptor 2 (Homo sapiens) (UniProt Q9Y5Y4)
# Sequence (whole entry): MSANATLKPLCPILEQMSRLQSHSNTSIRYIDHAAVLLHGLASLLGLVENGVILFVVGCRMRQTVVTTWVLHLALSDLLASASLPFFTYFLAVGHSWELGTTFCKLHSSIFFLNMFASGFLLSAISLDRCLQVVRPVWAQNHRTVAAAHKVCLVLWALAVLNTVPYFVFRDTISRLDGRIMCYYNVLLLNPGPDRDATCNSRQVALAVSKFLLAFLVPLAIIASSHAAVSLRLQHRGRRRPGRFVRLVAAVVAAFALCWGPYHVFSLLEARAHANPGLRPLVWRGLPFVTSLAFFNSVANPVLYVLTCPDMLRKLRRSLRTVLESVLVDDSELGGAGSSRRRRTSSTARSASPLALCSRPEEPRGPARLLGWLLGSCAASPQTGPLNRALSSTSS
# assaySummary: Binding affinity to CRTh2 receptor (unknown origin) overexpressed in CHOK1 cell membranes assessed as dissociation half life at 10 times IC50 concentration preincubated for 1 hr with 0.1 nM to 100 uM PGD2 and [35S]-GTPgammaS by liquid scintillation counting analysis
# Format: functional
# conditionLabel: CHO-K1
measurementName: T1/2 (h)

{"smiles": "CCN(Cc1cc(C(F)(F)F)ccc1-c1nn(CC(=O)O)c2ccc(Cl)c(F)c12)C(=O)C1CC1", "observedMeasurement": 10.5}
{"smiles": "CCN(Cc1cc(C(F)(F)F)ccc1-c1cn(CC(=O)O)c2ccc(C(F)(F)F)nc12)C(=O)C1CC1", "observedMeasurement": 25}
{"smiles": "CCN(Cc1cc(C(F)(F)F)ccc1-c1nn(CC(=O)O)c2cccc(F)c12)C(=O)C1CC1", "observedMeasurement": 5}
{"smiles": "CCN(Cc1cc(F)ccc1-n1cc(CC(=O)O)c2ccc(C)nc21)C(=O)C1CC1", "observedMeasurement": 11}
{"smiles": "CCN(Cc1cc(C(F)(F)F)ccc1-c1cc(CC(=O)O)n2ccc(C)nc12)C(=O)C1CC1", "observedMeasurement": 19}
{"smiles": "CCN(Cc1cc(OC(F)(F)F)ccc1-n1cc(CC(=O)O)c2ccc(C)nc21)C(=O)C1CC1", "observedMeasurement": 16}
{"smiles": "Cc1ccc2c(CC(=O)O)cn(-c3ccc(C(F)(F)F)cc3CN(CCO)C(=O)C3CC3)c2n1", "observedMeasurement": 7.8}
{"smiles": "CCN(Cc1cc(C(F)(F)F)ccc1-n1cc(CC(=O)O)c2ccc(C)nc21)C(C)=O", "observedMeasurement": 6.4}
{"smiles": "CCN(Cc1ccccc1-n1cc(CC(=O)O)c2ccc(C(F)(F)F)cc21)C(=O)C1CC1", "observedMeasurement": 27}
{"smiles": "CCN(Cc1cc(C)ccc1-n1cc(CC(=O)O)c2ccc(C)nc21)C(=O)C1CC1", "observedMeasurement": 24}
{"smiles": "CCN(Cc1cc(F)ccc1-n1cc(CC(=O)O)c2cccnc21)C(=O)C1CC1", "observedMeasurement": 1.3}
{"smiles": "CCN(Cc1cc(C(F)(F)F)ccc1-c1nn(CC(=O)O)c2ccc(Cl)cc12)C(=O)C1CC1", "observedMeasurement": 2.8}
{"smiles": "CCN(Cc1cc(Cl)ccc1-n1cc(CC(=O)O)c2ccc(C)nc21)C(=O)C1CC1", "observedMeasurement": 31}
{"smiles": "CCN(Cc1cc(C(F)(F)F)ccc1-n1cc(CC(=O)O)c2ccc(C)nc21)C(=O)CC1CC1", "observedMeasurement": 22}
{"smiles": "CCN(Cc1cc(C(F)(F)F)ccc1-c1cn(CC(=O)O)c2ccc(C)nc12)C(=O)C1CC1", "observedMeasurement": 21}
{"smiles": "CCN(Cc1cc(F)ccc1-c1cn(CC(=O)O)c2ccccc12)C(=O)C1CC1", "observedMeasurement": 2}
{"smiles": "CCN(Cc1cc(C(F)(F)F)ccc1-n1cc(CC(=O)O)c2cccnc21)C(=O)C1CC1", "observedMeasurement": 2.3}
{"smiles": "CCN(Cc1cc(C(F)(F)F)ccc1-c1nn(CC(=O)O)c2cccc(Cl)c12)C(=O)C1CC1", "observedMeasurement": 3.2}
{"smiles": "CCN(Cc1cc(C(F)(F)F)ccc1-n1cc(CC(=O)O)c2ccc(C3CC3)nc21)C(=O)C1CC1", "observedMeasurement": 5.4}
{"smiles": "Cc1ccc2c(CC(=O)O)cn(-c3ccc(C(F)(F)F)cc3CN(CCOc3ccccc3)C(=O)C3CC3)c2n1", "observedMeasurement": 40}
{"smiles": "CCN(Cc1cc(C(F)(F)F)ccc1-c1nn(CC(=O)O)c2cccc(OC)c12)C(=O)C1CC1", "observedMeasurement": 2.4}
{"smiles": "CCN(Cc1cc(C(F)(F)F)ccc1-c1cc(CC(=O)O)c2ccc(C)nn12)C(=O)C1CC1", "observedMeasurement": 26}
{"smiles": "CCN(Cc1cc(C(F)(F)F)ccc1-c1cn(CC(=O)O)c2cccnc12)C(=O)C1CC1", "observedMeasurement": 1.9}
{"smiles": "CCN(Cc1cc(C(F)(F)F)ccc1-c1nn(CC(=O)O)c2cccc(C#N)c12)C(=O)C1CC1", "observedMeasurement": 1.2}
{"smiles": "CCN(Cc1cc(C(F)(F)F)ccc1-n1cc(CC(=O)O)c2ccc(C)nc21)C(=O)C1CCC1", "observedMeasurement": 24}
{"smiles": "Cc1ccc2c(CC(=O)O)cn(-c3ccc(C(F)(F)F)cc3CN(CC3CC3)C(=O)C3CC3)c2n1", "observedMeasurement": 32}
{"smiles": "COCCN(Cc1cc(C(F)(F)F)ccc1-n1cc(CC(=O)O)c2ccc(C)nc21)C(=O)C1CC1", "observedMeasurement": 7}
{"smiles": "CCN(Cc1cc(C(F)(F)F)ccc1-c1cc(CC(=O)O)n2cccnc12)C(=O)C1CC1", "observedMeasurement": 2}
{"smiles": "CCN(Cc1cc(C(F)(F)F)ccc1-n1cc(CC(=O)O)c2ccc(C)nc21)C(=O)NCc1ccccc1", "observedMeasurement": 26}
{"smiles": "CCN(Cc1cc(C(F)(F)F)ccc1-c1nn(CC(=O)O)c2ccc(C)cc12)C(=O)C1CC1", "observedMeasurement": 1.8}
{"smiles": "CCc1ccc2c(CC(=O)O)cn(-c3ccc(C(F)(F)F)cc3CN(CC)C(=O)C3CC3)c2n1", "observedMeasurement": 9.9}
{"smiles": "CCN(Cc1cc(C(F)(F)F)ccc1-n1cc(CC(=O)O)c2ccc(C)nc21)C(=O)Cc1ccccc1", "observedMeasurement": 24}
{"smiles": "CCN(Cc1cc(C(F)(F)F)ccc1-n1cc(CC(=O)O)c2ccc(C)nc21)C(=O)C1CC1", "observedMeasurement": 21}
{"smiles": "CCN(Cc1cc(F)ccc1-c1cn(CC(=O)O)c2ccc(C(F)(F)F)cc12)C(=O)C1CC1", "observedMeasurement": 20}
{"smiles": "CCN(Cc1cc(C(F)(F)F)ccc1-n1cc(CC(=O)O)c2ccc(C)nc21)C(=O)COC", "observedMeasurement": 21}
{"smiles": "Cc1ccc2c(CC(=O)O)cn(-c3ccc(C(F)(F)F)cc3CN(C(=O)C3CC3)C(C)C)c2n1", "observedMeasurement": 9.2}
